Biological target: Thrombin and urokinase-type plasminogen activator (Homo sapiens) (UniProt P00734+P00749)
Assay: Selectivity index, IC50 for human thrombin/IC50 for human uPA
Format: protein assay
Listing: Selectivity index of selected molecules

INSERT INTO measurements (molecule, measure_name, test_value) VALUES
  ('Cc1cccc(C(=O)N[C@H](CO)C(=O)N[C@@H](C)C(=O)NC(Cc2ccc(NC(=N)N)cc2)P(=O)(Oc2ccccc2)Oc2ccccc2)c1 (stereo partly drawn)', 'Selectivity index', 7700),
  ('C[C@H](NC(=O)[C@@H](CO)NS(=O)(=O)c1ccc(C#N)cc1)C(=O)NC(Cc1ccc(NC(=N)N)cc1)P(=O)(Oc1ccccc1)Oc1ccccc1 (stereo partly drawn)', 'Selectivity index', 1200);

Let us examine a further case.
Item under review: C[C@H](NC(=O)[C@@H](CO)NC(=O)c1ccccc1)C(=O)NC(Cc1ccc(NC(=N)N)cc1)P(=O)(Oc1ccccc1)Oc1ccccc1 (stereo partly drawn) . Reported Selectivity index?
5400
